Test Details: pKA determination by titration with aqueous hydrochloric acid
Assay type: physicochemical
Condition Parameters: aqueous amine solution; 20° C.; 0.005 mol/L amine in water titrated with 0.1 mol/L HCl
Readout Label: pKa
Reply: number alone, nothing else.

Can you look up the measured pKa of `CC(C)(C)NCCN1CCCC1=O` for me?
9.6
